ASSAY SYSTEM: GHSR-1a (HEK293/GHSR1a cell line) (Homo sapiens)
Construct: expressed in transfected cells; host or cells: HEK293/GHSR1a cell line
Sequence (Q92847 whole entry): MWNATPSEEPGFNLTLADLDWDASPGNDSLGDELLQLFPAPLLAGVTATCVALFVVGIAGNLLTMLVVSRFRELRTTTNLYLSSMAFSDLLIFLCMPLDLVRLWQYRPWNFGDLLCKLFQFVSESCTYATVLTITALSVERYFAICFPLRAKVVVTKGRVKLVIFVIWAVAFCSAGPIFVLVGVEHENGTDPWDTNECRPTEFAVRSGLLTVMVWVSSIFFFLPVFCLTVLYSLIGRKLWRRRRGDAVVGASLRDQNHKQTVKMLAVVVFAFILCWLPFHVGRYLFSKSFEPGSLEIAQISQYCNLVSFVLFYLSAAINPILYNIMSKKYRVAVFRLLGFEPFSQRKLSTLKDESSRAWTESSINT
EXPERIMENT DESCRIPTION: Ghrelin antagonist potency (IC50) with calcium FLIPR assay, ghrelin 10 nM
Assay type: cell-based
RECORDED CONDITIONS: HEK293/GHSR1a, ghrelin 10 nM, read-out: Activity IC50 (ghrelin antagonist potency)
pIC50: −log10 of the molar value.
PROPERTY LABEL: pIC50

INSERT INTO results (compound, readout_qualifier, endpoint_value) VALUES
  ('C[C@H](NC(=O)Nc1ccc(S(=O)(=O)CC2CCNCC2)cc1)c1ccccc1', '<', 4.52),
  ('CC1Cc2cc(CS(=O)(=O)c3ccc(NC(=O)N(C)Cc4ccccc4)cc3)ccc2CN1 (centres unmarked)', '=', 5.98),
  ('CC(NC(=O)Nc1ccc(S(=O)(=O)Cc2ccc3c(c2)CCN(C)C3)cc1)c1ccccc1Cl (centres unmarked)', '=', 8.36),
  ('CC(NC(=O)Nc1ccc(S(=O)(=O)Cc2ccc3c(c2)CNC3)cc1)c1cccc(Cl)c1 (centres unmarked)', '=', 8.43),
  ('CC(NC(=O)Nc1ccc(S(=O)(=O)Cc2ccc3c(c2F)CCN(C)C3)cc1)c1cccc(Cl)c1Cl (centres unmarked)', '=', 7.67),
  ('COc1cc(S(=O)(=O)Cc2ccc3c(c2)CCN(C)C3)ccc1NC(=O)NC(C)c1cccc(Cl)c1Cl (centres unmarked)', '=', 8.48),
  ('CC(NC(=O)Nc1ccc(S(=O)(=O)Cc2ccc3c(c2)CN(C2COC2)C3)cc1)c1ccccc1 (centres unmarked)', '=', 7.39),
  ('COc1cc(S(=O)(=O)Cc2ccc3c(c2)CN(C)C3)ccc1NC(=O)NC(C)c1ccccc1 (centres unmarked)', '=', 7.99),
  ('COc1cccc(OC)c1C(C)NC(=O)Nc1ccc(S(=O)(=O)Cc2ccc3c(c2)CNC3)cc1 (centres unmarked)', '=', 6.54),
  ('COc1cccc(C(C)NC(=O)Nc2ccc(S(=O)(=O)Cc3ccc4c(c3)CN(C)C4)cc2)c1 (centres unmarked) [H1327]', '=', 8.25),
  ('CC1Cc2cc(CS(=O)(=O)c3ccc(NC(=O)N(C)C(C)c4cccc(Cl)c4Cl)c(F)c3)ccc2CN1 (centres unmarked)', '=', 7.12),
  ('CCN(CC)c1ccc(CS(=O)(=O)c2ccc(NC(=O)NC(C)c3cccc(Cl)c3Cl)cc2)cc1 (centres unmarked)', '<', 4.52),
  ('CN1Cc2ccc(CS(=O)(=O)c3ccc(NC(=O)NC4CNc5ccccc54)cc3)cc2C1 (centres unmarked)', '=', 5.73),
  ('CN1CCc2cc(CS(=O)(=O)c3ccc(NC(=O)NCc4cccc(Cl)c4Cl)cc3)ccc2C1', '=', 7.82),
  ('CC(NC(=O)Nc1ccc(S(=O)(=O)Cc2ccc3c(c2)CC(C)N(C)C3)cc1)c1cccc(Cl)c1Cl (centres unmarked)', '=', 8.64),
  ('CC(NC(=O)Nc1ccc(S(=O)(=O)Cc2ccc3c(c2)CNC3)cc1F)c1ccccc1 (centres unmarked)', '=', 7.51),
  ('CC(NC(=O)Nc1ccc(S(=O)(=O)Nc2ccc3c(c2)CN(C)C3)cc1)c1ccccc1 (centres unmarked)', '=', 7.63),
  ('C[C@@H](NC(=O)Nc1ccc(S(=O)(=O)Cc2cc3c(s2)CN(C)C3)cc1)c1ccccc1', '=', 7.19),
  ('COc1ccc([C@@H](C)NC(=O)Nc2ccc(S(=O)(=O)Cc3ccc4c(c3)CCN(C)C4)cc2F)c(Cl)c1Cl', '=', 6.94),
  ('COc1cc(S(=O)(=O)Cc2ccc3c(c2)CCNC3)ccc1NC(=O)N(C)C(C)c1cccc(Cl)c1Cl (centres unmarked)', '=', 7.17),
  ('CC(NC(=O)Nc1ccc(S(=O)(=O)Cc2cccc(CN3CCCC3)c2)cc1)c1ccccc1 (centres unmarked)', '=', 5.27),
  ('C[C@@H](NC(=O)Nc1ccc(S(=O)(=O)Nc2ccnc(N)n2)cc1)c1cccc(Cl)c1Cl', '=', 7.53),
  ('CC(NC(=O)Nc1ccc(S(=O)(=O)Cc2ccc3c(c2)C(O)CC3)cc1)c1ccccc1 (centres unmarked)', '=', 5.25),
  ('CC(c1ccccc1)N(C)C(=O)Nc1ccc(S(=O)(=O)Cc2ccc3c(c2)CCNC3)cc1F (centres unmarked)', '=', 5.68),
  ('C[C@H](NC(=O)Nc1ccc(S(=O)(=O)Cc2ccc3c(c2)CCN(C)CC3)cc1)c1ccccc1', '=', 6.95),
  ('C[C@H](NC(=O)Nc1ccc(S(=O)(=O)Cc2ccc(C3CCCN3)cc2)cc1)c1ccccc1 (some centres unmarked)', '=', 6.26),
  ('CN1Cc2ccc(CS(=O)(=O)c3ccc(NC(=O)N[C@H]4CCCc5ccccc54)cc3)cc2C1', '=', 6.88),
  ('COc1cc(S(=O)(=O)Cc2ccc3c(c2)CNC3)ccc1NC(=O)NC(C)c1ccccc1F.O=C(O)C(F)(F)F (centres unmarked)', '=', 7.66),
  ('C[C@H](NC(=O)Nc1ccc2c(c1)CC(c1ccc3c(c1)CN(C)C3)S2(=O)=O)c1ccccc1 (some centres unmarked)', '=', 7.19),
  ('C[C@H](NC(=O)Nc1ccc(S(=O)(=O)Cc2ccc3c(c2)CN(C)C3)cc1)c1ccccc1', '=', 6.72),
  ('CC(NC(=O)Nc1ccc(S(=O)(=O)Cc2ccc3c(c2)CNC3)cc1)c1ccncc1 (centres unmarked)', '=', 5.80),
  ('CC(NC(=O)Nc1ccc(S(=O)(=O)Nc2ccc3c(c2)CCN(C)C3)cc1)c1cccc(F)c1F (centres unmarked)', '=', 7.72);
